FYI, the data here is from patent EP0435381B1.

Test system: HRV- 2,-29,-39,-85,-9,-15,-51, -59,-63,-89,-41
Test: Picornavirus Minimal Inhibitory Concentration Test (cytopathic effect reduction assay), first panel of rhinoviruses
Format: cell-based
Conditions: Human rhinovirus sp., HeLa, read-out: Med₁
reported.property: IC50 (ng/mL)
Respond numerically; units are ng/mL and should not be typed.

INSERT INTO results (molecule, reported_property, endpoint_value) VALUES
  ('CCc1noc(-c2ccc(OCCN3CCN(c4ccc(Cl)nn4)CC3)cc2)n1', 'IC50', 2.4),
  ('CCCc1nc(-c2ccc(OCCC3CCN(c4ccc(C)nn4)CC3)cc2)co1', 'IC50', 7),
  ('CCc1nc(-c2ccc(OCCC3CCN(c4ccc(C)nn4)CC3)cc2)no1', 'IC50', 1.3),
  ('Cc1ccc(N2CCC(CCOc3ccc(-c4nc(C)no4)cc3)CC2)nn1', 'IC50', 4),
  ('CCCc1nc(-c2ccc(OCCC3CCN(c4ccc(C)nn4)CC3)cc2)no1', 'IC50', 6),
  ('CCc1nc(-c2ccc(OCCC3CCN(c4ccc(C)nn4)C3)cc2)no1 (centres unmarked)', 'IC50', 5),
  ('CCc1noc(-c2ccc(OCCC3CCN(c4ccc(C)nn4)CC3)cc2)n1', 'IC50', 2.9),
  ('CCCCc1noc(-c2ccc(OCCC3CCN(c4ccc(C)nn4)CC3)cc2)n1', 'IC50', 6),
  ('CCc1nc(-c2ccc(OCCC3CCN(c4ccc(C)nn4)CC3)cc2)cs1', 'IC50', 5),
  ('CCc1noc(-c2ccc(OCCC3CCN(c4ccc(Cl)nn4)C3)cc2)n1 (centres unmarked)', 'IC50', 14);

Exercise: Name the recorded IC50 for "Cc1ccc(N2CCC(CCOc3ccc(-c4noc(C)n4)cc3)CC2)nn1" .
Solution: 8

Exercise: Name the recorded IC50 for "CCc1noc(-c2ccc(OCC3CCN(c4ccc(C)nn4)CC3)cc2)n1" .
Solution: 2

Exercise: Name the recorded IC50 for CCc1noc(-c2ccc(OCCC3CCN(c4ccc(C)nn4)C3)cc2)n1 (centres unmarked) .
Solution: 6

Exercise: Name the recorded IC50 for "CCCc1noc(-c2ccc(OCCC3CCN(c4ccc(C)nn4)CC3)cc2)n1" .
Solution: 6.8

Exercise: Name the recorded IC50 for "CCc1nnc(-c2ccc(OCCC3CCN(c4ccc(C)nn4)CC3)cc2)o1" .
Solution: 6

Exercise: Name the recorded IC50 for "CCc1csc(-c2ccc(OCCC3CCN(c4ccc(C)nn4)CC3)cc2)n1" .
Solution: 1
